# TARGET ENTITY: human PAH with the R408W mutation (A375 R408W cells) (Homo sapiens, UniProt P00439, R408W)
# Construct: expressed in transfected cells
# Sequence (P00439 1-452 R408W): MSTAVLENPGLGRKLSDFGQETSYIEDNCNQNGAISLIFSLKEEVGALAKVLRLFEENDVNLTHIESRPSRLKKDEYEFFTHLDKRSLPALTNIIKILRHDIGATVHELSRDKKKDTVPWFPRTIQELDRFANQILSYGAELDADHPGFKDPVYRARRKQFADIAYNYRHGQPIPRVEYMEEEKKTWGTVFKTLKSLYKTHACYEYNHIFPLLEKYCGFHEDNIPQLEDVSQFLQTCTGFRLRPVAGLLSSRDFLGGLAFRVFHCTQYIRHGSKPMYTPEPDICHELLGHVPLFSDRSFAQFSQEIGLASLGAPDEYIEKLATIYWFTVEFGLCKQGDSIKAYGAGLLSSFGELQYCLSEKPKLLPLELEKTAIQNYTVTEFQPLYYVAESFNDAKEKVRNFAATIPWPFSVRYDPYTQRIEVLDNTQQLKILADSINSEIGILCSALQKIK
# ASSAY SUMMARY: Cell Based Phenylalanine Flux Assay
# CONDITIONS USED: A375 R408W cells; 24 hrs with compound, then 20 μM sepiapterin and 800 μM 13C9,15N-Phenylalanine for 4 hours; 13C-Tyrosine by LC-MS; average where tested multiple times
ENDPOINT LABEL: AC50

{"columns": ["MOLECULE", "ENDPOINT LABEL", "READOUT VALUE"],
 "data": [
  ["Cc1cccc2nc([C@@H]3c4nc[nH]c4CCN3C(=O)c3nnc(-c4cnn(C)c4)o3)oc12 [Example 565]", "AC50", "500 to 1000 nM"],
  ["O=C(c1nnc(-c2ccn(C(F)F)n2)o1)N1CCc2[nH]cnc2[C@@H]1c1nc2c(F)ccc(F)c2o1 [Example 816]", "AC50", "≤ 500 nM"],
  ["Cn1nc(C(F)F)nc1C(=O)N1CCc2[nH]cnc2[C@@H]1c1nc2cc(F)cc(F)c2o1 [Example 578]", "AC50", "1000 to 5000 nM"],
  ["Cn1cc(-c2nc(C(F)F)c(C(=O)N3CCc4[nH]cnc4[C@@H]3c3nc4ccccc4o3)o2)cn1 [Example 759]", "AC50", "1000 to 5000 nM"],
  ["COc1ccc2oc([C@H]3c4nc[nH]c4CCN3C(=O)c3ocnc3C(F)F)nc2c1 [Example 342]", "AC50", "500 to 1000 nM"],
  ["Cn1nc(C2CC2)nc1C(=O)N1CCc2[nH]cnc2[C@@H]1c1nc2cccc(F)c2o1 [Example 498]", "AC50", "1000 to 5000 nM"],
  ["O=C(c1nnc(-c2ccccn2)o1)N1CCc2[nH]cnc2[C@H]1c1nc2cc(F)ccc2o1 [Example 39]", "AC50", "500 to 1000 nM"],
  ["Cc1cc(C(=O)N2CCc3[nH]cnc3[C@H]2c2nc3cccc(F)c3o2)n(C)n1 [Example 769]", "AC50", "1000 to 5000 nM"]
]}

---

# TARGET ENTITY: human PAH with the R408W mutation (A375 R408W cells) (Homo sapiens, UniProt P00439, R408W)
# Construct: expressed in transfected cells
# Sequence (P00439 1-452 R408W): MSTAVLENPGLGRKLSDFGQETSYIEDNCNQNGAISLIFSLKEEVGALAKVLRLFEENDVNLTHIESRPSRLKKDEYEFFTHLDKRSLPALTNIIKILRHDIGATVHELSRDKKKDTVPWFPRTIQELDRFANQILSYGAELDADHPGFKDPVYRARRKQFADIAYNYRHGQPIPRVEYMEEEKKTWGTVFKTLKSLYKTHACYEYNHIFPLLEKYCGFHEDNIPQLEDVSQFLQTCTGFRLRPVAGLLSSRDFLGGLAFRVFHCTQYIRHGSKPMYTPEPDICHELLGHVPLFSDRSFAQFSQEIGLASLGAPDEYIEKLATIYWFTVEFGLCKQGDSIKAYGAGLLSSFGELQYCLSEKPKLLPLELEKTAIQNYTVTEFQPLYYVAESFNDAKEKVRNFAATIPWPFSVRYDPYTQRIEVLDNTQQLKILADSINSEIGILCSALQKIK
# ASSAY SUMMARY: Cell Based Phenylalanine Flux Assay
# CONDITIONS USED: A375 cells expressing R408W PAH; 24 hrs with compound, then 20 μM sepiapterin and 800 μM 13C9,15N-Phenylalanine for 4 hours; 13C-Tyrosine by LC-MS; average where tested multiple times

{"columns": ["COMPOUND", "AC50"],
 "data": [
  ["O=C(c1nnc(N2CC(F)C2)o1)N1CCc2[nH]cnc2C1c1nc2cc(F)ccc2o1 (stereo not drawn)", "1 to 5 µM"],
  ["O=C(c1cn[nH]c1C(F)F)N1CCc2[nH]cnc2C1c1nc2cc(F)ccc2o1 (stereo not drawn)", "≥ 5 µM"],
  ["Cn1ncnc1C(=O)N1CCc2[nH]cnc2C1c1nc2ccc(F)cc2o1 (stereo not drawn)", "1 to 5 µM"],
  ["O=C1CN(CCc2ccc3c(C(=O)N4CCc5[nH]cnc5C4c4nc5cc(F)ccc5o4)cnn3c2)CCN1 (stereo not drawn)", "1 to 5 µM"],
  ["Cn1nc(C(C)(C)C)cc1C(=O)N1CCc2[nH]cnc2C1c1nc2ccccc2o1 (stereo not drawn)", "≥ 5 µM"],
  ["Cn1ncnc1C(=O)N1CCc2[nH]cnc2C1c1nc2cc(F)ccc2o1 (stereo not drawn)", "1 to 5 µM"],
  ["O=C(c1ncc(Cl)s1)N1CCc2[nH]cnc2C1c1nc2cc(F)ccc2o1 (stereo not drawn)", "1 to 5 µM"],
  ["COCCNc1ccc2c(C(=O)N3CCc4[nH]cnc4C3c3nc4cc(F)ccc4o3)cnn2c1 (stereo not drawn)", "1 to 5 µM"],
  ["Cc1nc(C(C)(C)N(C)C)oc1C(=O)N1CCc2[nH]cnc2C1c1nc2cc(F)ccc2o1 (stereo not drawn)", "≥ 5 µM"]
]}
